These measurements were taken from patent US8329675B2.

subject-of-test: human FAAH (Homo sapiens, UniProt O00519)
Construct: host or cells: COS-7 cells, transient transfection; 13,000 g membrane fraction solubilised in 1% Triton X-100
Sequence (O00519 whole entry): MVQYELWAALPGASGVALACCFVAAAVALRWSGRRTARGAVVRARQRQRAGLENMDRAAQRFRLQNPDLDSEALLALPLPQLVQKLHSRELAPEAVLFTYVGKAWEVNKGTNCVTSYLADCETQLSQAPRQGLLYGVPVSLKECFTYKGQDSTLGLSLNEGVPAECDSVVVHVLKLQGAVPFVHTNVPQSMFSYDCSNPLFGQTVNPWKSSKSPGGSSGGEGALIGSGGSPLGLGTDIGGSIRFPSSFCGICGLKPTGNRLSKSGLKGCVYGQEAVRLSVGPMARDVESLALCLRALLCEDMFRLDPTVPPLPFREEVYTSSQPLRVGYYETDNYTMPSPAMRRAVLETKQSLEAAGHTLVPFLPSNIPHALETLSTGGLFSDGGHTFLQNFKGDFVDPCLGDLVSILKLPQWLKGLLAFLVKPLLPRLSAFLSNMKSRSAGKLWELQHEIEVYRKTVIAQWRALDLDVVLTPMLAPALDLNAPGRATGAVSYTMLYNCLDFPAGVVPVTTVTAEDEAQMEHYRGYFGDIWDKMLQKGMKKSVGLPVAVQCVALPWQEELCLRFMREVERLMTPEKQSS
experimental-details: Human FAAH biochemical inhibition assay (AMC arachidonoyl amide fluorescence)
details: Table 1, human FAAH (no asterisk); read-out: Activity (Ki)
endpoint-name: Ki

>  <structure-string>
Cc1ccc(B(O)O)c(F)c1

>  <result>
10 to 1000 nM

$$$$
>  <structure-string>
OB(O)c1cccc(C(F)(F)F)c1

>  <result>
10 to 100 nM

$$$$
>  <structure-string>
OB(O)c1ccc(-c2ccccc2)s1

>  <result>
10 to 100 nM

$$$$
>  <structure-string>
CCOc1ccc(Br)cc1B(O)O

>  <result>
> 1000 nM

$$$$
>  <structure-string>
OB(O)c1cncnc1

>  <result>
> 1000 nM

$$$$
>  <structure-string>
Cc1cc(OCc2ccccc2)ccc1B(O)O

>  <result>
10 to 100 nM

$$$$
>  <structure-string>
OB(O)c1c(F)ccc(OCc2ccccc2)c1F

>  <result>
> 1000 nM

$$$$
>  <structure-string>
COc1ccc(B(O)O)cc1Cl

>  <result>
10 to 1000 nM

$$$$
>  <structure-string>
CCCc1ccc(B(O)O)cc1

>  <result>
10 to 100 nM

$$$$
>  <structure-string>
CC(C)(C)OC(=O)n1c(B(O)O)cc2c(OCc3ccccc3)cccc21

>  <result>
> 1000 nM

$$$$
>  <structure-string>
COc1ccc(B(O)O)cc1

>  <result>
> 1000 nM

$$$$
>  <structure-string>
OB(O)c1ccc(OCCn2cccn2)cc1

>  <result>
10 to 100 nM

$$$$
>  <structure-string>
OB(O)c1ccc(Br)cc1

>  <result>
10 to 1000 nM

$$$$
>  <structure-string>
OB(O)c1cc2ccccc2nc1Cl

>  <result>
> 1000 nM

$$$$
>  <structure-string>
O=[N+]([O-])c1ccccc1B(O)O

>  <result>
> 1000 nM

$$$$
>  <structure-string>
CC(=O)c1cccc(B(O)O)c1

>  <result>
10 to 1000 nM

$$$$
>  <structure-string>
COc1ccc(CNS(=O)(=O)c2ccc(B(O)O)cc2)cc1

>  <result>
10 to 100 nM

$$$$
>  <structure-string>
Cc1cc(Br)cc(B(O)O)c1

>  <result>
10 to 1000 nM

$$$$
>  <structure-string>
OB(O)c1ccc2c(c1)OCO2

>  <result>
> 1000 nM

$$$$
>  <structure-string>
OB(O)c1cc(OC(F)(F)F)ccc1F

>  <result>
10 to 100 nM

$$$$
>  <structure-string>
OB(O)c1ccc(F)cc1

>  <result>
> 1000 nM

$$$$
>  <structure-string>
CCOc1cc(B(O)O)cc(C(F)(F)F)c1

>  <result>
> 1000 nM

$$$$
>  <structure-string>
OB(O)c1cccc2cccnc12

>  <result>
> 1000 nM

$$$$
>  <structure-string>
OB(O)c1cccc2ccccc12

>  <result>
10 to 1000 nM

$$$$
